List of IC50, inhibition of IL-8 release (K299 single cell assay with cyno CD30L LZ) values.
# System Under Test: T1, cyno CD30L LZ (cynomolgus monkey, UniProt A0A7N9CVX7 63-234)
# T1 sequence: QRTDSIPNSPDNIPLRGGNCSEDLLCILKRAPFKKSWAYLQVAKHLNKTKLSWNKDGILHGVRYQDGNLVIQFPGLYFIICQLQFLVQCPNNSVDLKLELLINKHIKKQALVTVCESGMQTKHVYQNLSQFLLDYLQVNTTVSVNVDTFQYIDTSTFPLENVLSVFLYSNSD
# Method: cell-based or functional assay
Measure: IC50, inhibition of IL-8 release (K299 single cell assay with cyno CD30L LZ)

Binder	Result
Antibody A1 IgG1 (antibody, V domains shown) VH: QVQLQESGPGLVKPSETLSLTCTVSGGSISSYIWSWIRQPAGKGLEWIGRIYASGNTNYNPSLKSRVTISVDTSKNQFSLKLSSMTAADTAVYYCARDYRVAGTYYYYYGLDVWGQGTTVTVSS VL: QSALTQPASVSGSPGQSITISCTGTSSDVGVYDYVSWYQQHPGKAPKLMIYEVSNRPSGVSNRFSGSKSGNTASLTISGLQTEDEADYYCSSYTSRSTWVFGGGTKLTVL	1.5 nM
Antibody A1 (antibody, V domains shown, also called mAb A1; Antibody A1 IgG2) VH: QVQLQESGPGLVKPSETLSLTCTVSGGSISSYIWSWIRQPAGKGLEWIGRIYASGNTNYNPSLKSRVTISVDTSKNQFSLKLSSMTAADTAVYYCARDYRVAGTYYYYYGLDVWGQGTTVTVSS VL: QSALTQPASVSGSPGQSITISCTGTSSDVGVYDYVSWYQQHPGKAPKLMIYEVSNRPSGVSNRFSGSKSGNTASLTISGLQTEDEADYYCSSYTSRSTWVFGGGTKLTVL	2.4 nM
